The entries below are paired with their reported IC50.
- Tested on: MV4-11 cells
- ASSAY_METHOD_TEXT: Inhibition of MV4-11 cell proliferation (CellTiterGlo, 72 h)
- Format: cell-based
- CONDITION_NOTES: Homo sapiens; 72 h growth inhibition
- Description: To assess the cellular potency of the FLT3 inhibitors of Formula I′, FLT3 specific growth inhibition was measured in the leukemic cell line MV4-11 (ATCC Number: CRL-9591). […] MV4-11 cells cannot grow and survive without active FLT3ITD. To measure proliferation inhibition by test compounds, the luciferase based CellTiterGlo reagent (Promega), which quantifies total cell number based on total cellular ATP concentration, was used. […]
Form entry: value (nM) — number only.

Worked set:
[
  {
    "COMPOUND": "COc1cc2ncnc(N3CCC(NC(=O)Nc4ccc(OC5CCCC5)cc4)C3)c2cc1OC (stereo not drawn)",
    "TARGET_UNDER_TEST": "MV4-11 cells",
    "IC50, nM": 1500
  },
  {
    "COMPOUND": "COc1cc2ncnc(N3CCC(NC(=O)Nc4ccc(OC5CCCC5)cc4)CC3)c2cc1OC",
    "TARGET_UNDER_TEST": "MV4-11 cells",
    "IC50, nM": 470
  },
  {
    "COMPOUND": "COc1cc2ncnc(N3CCC(NC(=O)Nc4ccc(N(C)C)cc4)CC3)c2cc1OC",
    "TARGET_UNDER_TEST": "MV4-11 cells",
    "IC50, nM": 941
  },
  {
    "COMPOUND": "CC(C)c1ccc(NC(=O)OC2CCN(c3ncnc4ccccc34)C2)cc1 (stereo not drawn)",
    "TARGET_UNDER_TEST": "MV4-11 cells",
    "IC50, nM": 220
  }
]

stdin: Checklist item: IC50 tested on MV4-11 cells, entry COc1cc2ncnc(N3CCCC3COC(=O)Nc3ccc(C(C)C)cc3)c2cc1OC (stereo not drawn) , value?
stdout: 196

stdin: Checklist item: IC50 tested on MV4-11 cells, entry COc1cc2ncnc(N3CCC(NC(=O)Nc4ccc(Cl)cc4)C3)c2cc1OC (stereo not drawn) , value?
stdout: 2500

stdin: Checklist item: IC50 tested on MV4-11 cells, entry `COc1cc2ncnc(N3CCC(NC(=O)Nc4ccc(C(C)C)cc4)CC3)c2cc1OC` , value?
stdout: 1

stdin: Checklist item: IC50 tested on MV4-11 cells, entry `COc1cc2ncnc(N3CCC(COC(=O)Nc4ccc(OC5CCCC5)cc4)CC3)c2cc1OC` , value?
stdout: 740

stdin: Checklist item: IC50 tested on MV4-11 cells, entry `COc1cc2ncnc(N3CCC(NC(=O)Nc4ccc(N5CCCC5)cc4)CC3)c2cc1OC` , value?
stdout: 528

stdin: Checklist item: IC50 tested on MV4-11 cells, entry COc1cc2ncnc(N3CCCC(OC(=O)Nc4ccc(C(C)C)cc4)C3)c2cc1OC (stereo not drawn) , value?
stdout: 1700

stdin: Checklist item: IC50 tested on MV4-11 cells, entry `COc1cc2ncnc(N3CCC(CC(=O)Nc4ccc(C(C)C)cc4)CC3)c2cc1OC` , value?
stdout: 7

stdin: Checklist item: IC50 tested on MV4-11 cells, entry `COc1cc2ncnc(N3CCC(NC(=O)Cc4ccc(C(C)C)cc4)CC3)c2cc1OC` , value?
stdout: 78

----------
- TARGET_UNDER_TEST: wild-type FLT3 phosphorylation in Baf3 FLT3 cells (Homo sapiens, UniProt P36888)
- Sequence (P36888 27-993): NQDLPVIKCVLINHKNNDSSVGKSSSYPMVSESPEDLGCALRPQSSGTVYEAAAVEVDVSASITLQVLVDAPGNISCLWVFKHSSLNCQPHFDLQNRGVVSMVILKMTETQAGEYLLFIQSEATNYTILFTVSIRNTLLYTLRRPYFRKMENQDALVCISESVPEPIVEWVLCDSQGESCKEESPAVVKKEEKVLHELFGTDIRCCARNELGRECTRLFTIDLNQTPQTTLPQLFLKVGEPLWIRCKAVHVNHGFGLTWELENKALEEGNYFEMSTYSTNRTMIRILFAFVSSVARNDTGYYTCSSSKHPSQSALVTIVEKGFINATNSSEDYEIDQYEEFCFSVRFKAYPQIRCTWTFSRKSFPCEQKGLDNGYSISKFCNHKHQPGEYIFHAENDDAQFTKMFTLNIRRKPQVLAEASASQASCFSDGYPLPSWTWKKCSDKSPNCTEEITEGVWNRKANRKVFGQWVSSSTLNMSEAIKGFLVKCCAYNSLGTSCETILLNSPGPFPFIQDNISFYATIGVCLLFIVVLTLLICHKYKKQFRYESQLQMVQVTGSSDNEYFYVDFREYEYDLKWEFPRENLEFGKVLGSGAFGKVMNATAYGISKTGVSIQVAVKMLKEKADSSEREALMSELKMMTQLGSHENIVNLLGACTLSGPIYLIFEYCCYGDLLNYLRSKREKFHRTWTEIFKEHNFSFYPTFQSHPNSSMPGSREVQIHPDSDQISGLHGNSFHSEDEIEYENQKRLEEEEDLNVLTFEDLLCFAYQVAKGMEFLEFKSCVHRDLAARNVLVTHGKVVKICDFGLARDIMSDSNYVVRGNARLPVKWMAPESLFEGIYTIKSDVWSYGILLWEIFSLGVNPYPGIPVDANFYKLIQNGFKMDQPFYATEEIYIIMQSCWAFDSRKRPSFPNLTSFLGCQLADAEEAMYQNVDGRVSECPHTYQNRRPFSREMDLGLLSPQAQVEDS
- ASSAY_METHOD_TEXT: Cell-based FLT3 receptor ELISA
- CONDITION_NOTES: FLT ligand-induced FLT3 phosphorylation
- Description: Specific cellular inhibition of FLT ligand-induced wild-type FLT3 phosphorylation was measured in the following manner: Baf3 FLT3 cells overexpressing the FLT3 receptor were obtained from Dr. Michael Heinrich (Oregon Health and Sciences University). The Baf3 FLT3 cell lines were created by stable transfection of parental Baf3 cells (a murine B cell lymphoma line dependent on the cytokine IL-3 for growth) with wild-type FLT3. […]
QUANTITY: IC50 (nM)
Form entry: value (nM) — number only.

[
  {
    "COMPOUND": "COc1cc2ncnc(N3CCC(OC(=O)Nc4ccc(OC5CCC5)nc4)C3)c2cc1OC (centres unmarked)",
    "IC50 [nM]": 11
  },
  {
    "COMPOUND": "COc1ccc2c(N3CCC(NC(=O)Nc4ccc(C(C)C)cc4)CC3)ncnc2c1",
    "IC50 [nM]": 178
  }
]

stdin: Checklist item: IC50 tested on wild-type FLT3 phosphorylation in Baf3 FLT3 cells (Homo sapiens, UniProt P36888), entry COc1cc2ncnc(N3CCC(NC(=O)Nc4ccc(C(C)C)cc4)C3)c2cc1OC (centres unmarked) , value?
stdout: 140

stdin: Checklist item: IC50 tested on wild-type FLT3 phosphorylation in Baf3 FLT3 cells (Homo sapiens, UniProt P36888), entry `COc1cc2ncnc(N3CCC(OC(=O)Nc4ccc(C(C)C)cc4)CC3)c2cc1OC` , value?
stdout: 16

stdin: Checklist item: IC50 tested on wild-type FLT3 phosphorylation in Baf3 FLT3 cells (Homo sapiens, UniProt P36888), entry `CC(C)c1ccc(NC(=O)NC2CCN(c3ncnc4cc(F)ccc34)CC2)cc1` , value?
stdout: 30

stdin: Checklist item: IC50 tested on wild-type FLT3 phosphorylation in Baf3 FLT3 cells (Homo sapiens, UniProt P36888), entry `COc1cc2ncnc(N3CCC(CNC(=O)Nc4ccc(C(C)C)cc4)CC3)c2cc1OC` , value?
stdout: 49

stdin: Checklist item: IC50 tested on wild-type FLT3 phosphorylation in Baf3 FLT3 cells (Homo sapiens, UniProt P36888), entry COc1cc2ncnc(N3CCCC(COC(=O)Nc4ccc(OC5CCCC5)cc4)C3)c2cc1OC (centres unmarked) , value?
stdout: 46

stdin: Checklist item: IC50 tested on wild-type FLT3 phosphorylation in Baf3 FLT3 cells (Homo sapiens, UniProt P36888), entry `COc1ccc2ncnc(N3CCC(NC(=O)Nc4ccc(C(C)C)cc4)CC3)c2c1` , value?
stdout: 11

stdin: Checklist item: IC50 tested on wild-type FLT3 phosphorylation in Baf3 FLT3 cells (Homo sapiens, UniProt P36888), entry `CC(C)c1ccc(NC(=O)NC2CCN(c3ncnc4cc(OCCN5CCCC5=O)ccc34)CC2)cc1` , value?
stdout: 4

stdin: Checklist item: IC50 tested on wild-type FLT3 phosphorylation in Baf3 FLT3 cells (Homo sapiens, UniProt P36888), entry COc1cc2ncc(C#N)c(N3CCC(OC(=O)Nc4ccc(C(C)C)cc4)C3)c2cc1OC (centres unmarked) , value?
stdout: 1100

----------
- System: MV4-11 cells
- ASSAY_METHOD_TEXT: Inhibition of MV4-11 cell proliferation (CellTiterGlo, 72 h)
- Type: cell-based
- CONDITION_NOTES: Homo sapiens; 72 h growth inhibition
QUANTITY: IC50

[
  {
    "COMPOUND": "CC(C)Oc1ccc(NC(=O)OC2CCN(c3ccnc4ccccc34)C2)cc1 (stereo not drawn) [Compound 39]",
    "IC50": "> 10 µM"
  },
  {
    "COMPOUND": "COc1cc2ncnc(N3CCC(NC(=O)Nc4ccc(N5CCOCC5)cc4)C3)c2cc1OC (stereo not drawn) [Compound 43]",
    "IC50": "> 5 µM"
  }
]

Note: attention shifts to another entry.
stdin: For the compound CC(C)Oc1ccc(NC(=O)OC2CCN(c3ccnc4ccccc34)CC2)cc1 [Compound 41] , what IC50 is on record?
stdout: > 10 µM

Reference source for all entries: patent US20060281771A1
